molecular target: P2X7 receptor (Homo sapiens (Human)); experiment: Human P2X7 channel calcium-influx assay (Fluo-8 NW, FLIPR TETRA, Bz-ATP stimulation); conditions: HEK-293 cells stably transfected with P2X7 receptor, Low Divalent Cation Assay Buffer, read-out: hP2X7 IC50
Sequence (Q99572 whole entry): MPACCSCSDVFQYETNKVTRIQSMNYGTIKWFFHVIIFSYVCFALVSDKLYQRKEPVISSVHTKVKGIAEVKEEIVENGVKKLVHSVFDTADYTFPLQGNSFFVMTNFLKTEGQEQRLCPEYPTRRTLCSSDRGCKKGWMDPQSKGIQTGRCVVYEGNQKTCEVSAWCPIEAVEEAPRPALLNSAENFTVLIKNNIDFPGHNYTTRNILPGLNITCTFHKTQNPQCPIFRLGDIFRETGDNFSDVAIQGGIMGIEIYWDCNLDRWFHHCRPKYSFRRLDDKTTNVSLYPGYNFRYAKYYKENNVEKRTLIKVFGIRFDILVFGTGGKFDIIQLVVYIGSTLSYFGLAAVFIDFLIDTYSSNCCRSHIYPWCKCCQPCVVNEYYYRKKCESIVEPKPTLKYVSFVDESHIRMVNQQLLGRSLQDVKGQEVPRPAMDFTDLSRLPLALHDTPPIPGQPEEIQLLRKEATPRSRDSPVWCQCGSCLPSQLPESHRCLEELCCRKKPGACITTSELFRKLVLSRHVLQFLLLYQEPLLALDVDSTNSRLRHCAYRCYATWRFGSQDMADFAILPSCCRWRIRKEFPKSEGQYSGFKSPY
pIC50: −log10 of the molar value.
reported.metric: pIC50

Field: example entries. Status: answers known.
molecule: O=C(NCC(c1scnc1C(F)F)N1CCC(COc2nnnn2-c2ccccc2)CC1)c1c(F)cccc1Cl (centres unmarked)
tested.target: P2X7 receptor (Homo sapiens (Human))
reported.metric: pIC50
assay.value: 7.47

molecule: O=C(NCC(c1scnc1C(F)F)N1CCC(COc2cccc(F)n2)CC1)c1c(F)cccc1Cl (centres unmarked)
tested.target: P2X7 receptor (Homo sapiens (Human))
reported.metric: pIC50
assay.value: 7.74

molecule: O=C(NCC(c1scnc1C(F)F)N1CCC(Oc2ccncc2)CC1)c1c(F)cccc1Cl (centres unmarked)
tested.target: P2X7 receptor (Homo sapiens (Human))
reported.metric: pIC50
assay.value: 7.42

(a) O=C(NCC(c1scnc1C(F)F)N1CCC(Oc2nc3ccccc3o2)CC1)c1c(F)cccc1Cl (centres unmarked)
(b) Cc1nc(C)c(F)c(OC2CCN(C(CNC(=O)c3c(F)cccc3Cl)c3scnc3C(F)F)CC2)n1 (centres unmarked)
// query Which of these two has the smaller recorded pIC50: a or b ? Mark your answer with the label of the selected entry.
// result b
(b: 7.21, a: 7.69)

Origin of measurements: patent US20240034737A1
